- System: THP-1 ASC-GFP cells
- test: THP-1 ASC-GFP speck assay (NLRP3 inflammasome activation, nigericin)
- Format: cell-based
- applied.conditions: THP1-ASC-GFP; PMA-differentiated, LPS primed, 10 μM nigericin
value.kind: IC50

Past entries and their recorded results:
compound	assayed.system	IC50
COc1cc(-c2cc(C(F)(F)F)nc(C(C)C)c2NC(=O)NS(=O)(=O)c2cnn3c2OCCC3)ccn1	THP-1 ASC-GFP cells	520 nM
COc1cc(OC)nc(NC(=O)NS(=O)(=O)c2cnn3c2OCCC3)n1	THP-1 ASC-GFP cells	> 20000 nM
COc1cc(C(C)C)c(NC(=O)NS(=O)(=O)c2cnn3c2OCC(CNC(C)=O)C3)c(C(C)C)n1 (racemic)	THP-1 ASC-GFP cells	720 nM

Recorded IC50 for "COc1cc(-c2nc(C(F)(F)F)cc(C(C)C)c2NC(=O)NS(=O)(=O)c2cnn3c2OCCC3)ccn1" , please?
340 nM
